- assay info: High Content Assay for Compounds that inhibit the Assembly of the Perinucleolar Compartment;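 further: plate controls were DMSO wells for no effect and camptothecin positive control wells for full effect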
- particulars: PC3M PTB-GFP, PNC prevalence imaging, 16 h; at 10 µM
About 4,300 (3.1%) of roughly 140,000 compounds were called active. Inconclusive results (about 21%) are left out.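 How the source made its calls: active means readout at or below -70, meaning at least 70% loss of cells showing the perinucleolar compartment, a nuclear body marking cancer cells; inconclusive means readout between -30 and a set limit; inactive means the rest.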 This excerpt belongs to a sample that is enriched for actives.
Hi! Could you answer with just one of these? active, inactive

Q: Which outcome was assigned to COc1cccc2c(C)c(C(=O)O)[nH]c12 in this test?
Ans: active

====

Measured activity change (PNC), negative = inhibition, listed per entry for reference.
- assay info: High Content Assay for Compounds that inhibit the Assembly of the Perinucleolar Compartment;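 further: plate controls were DMSO wells for no effect and camptothecin positive control wells for full effect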
- particulars: PC3M PTB-GFP, PNC prevalence imaging, 16 h; at 10 µM; hits give low values
- Experimental: High Content Assay for Compounds that inhibit the Assembly of the Perinucleolar Compartment NIH Chemical Genomics Center [NCGC] NIH Molecular Libraries Probe Centers Network [MLPCN] […] PNC High Content Imaging Assay Procedure: 1. […] PNC prevalence was determined using the Multitarget analysis module from InCell Workstation software (V3.5 ) and analysis was run on a quad core workstation using the Incell Developer Toolbox (V1.7). […]
Out of some 140,000 compounds screened, about 4,300 (3.1%) were called active. Inconclusive results (about 21%) are left out. Shown is part of a subset that was picked to be rich in actives.
Enter your answer as a number in %; do not include the unit.

Guide cases for activity change (PNC), negative = inhibition, answers given:
Q: Quick check: activity change (PNC), negative = inhibition of Cc1ccc(S(=O)(=O)N2CCC(C(=O)N[C@@H](C)C(=O)NCc3ccco3)CC2)cc1 ?
Ans: 61.1

Q: Quick check: activity change (PNC), negative = inhibition of O=C(CSc1nc(-c2ccccc2)cs1)Nc1cccc([N+](=O)[O-])c1 ?
Ans: 126

Q: Quick check: activity change (PNC), negative = inhibition of Cc1cccc2cc(CN(C(=O)c3cccs3)c3ccccc3)c(=O)[nH]c12 ?
Ans: 29.9

New cases:
Q: Quick check: activity change (PNC), negative = inhibition of COCCNC(=O)c1ccc(N2CCC3(CC2)OCCO3)c([N+](=O)[O-])c1 ?
Ans: -24.5

Q: Quick check: activity change (PNC), negative = inhibition of COc1ccccc1N1CCN(Cc2ccc(OC)c3ccccc23)CC1 ?
Ans: -100

Q: Quick check: activity change (PNC), negative = inhibition of Cc1cccc(NC(=O)c2sc(-c3ccccc3)nc2-c2ccc([N+](=O)[O-])cc2)c1 ?
Ans: -100

====

- assay info: High Content Assay for Compounds that inhibit the Assembly of the Perinucleolar Compartment;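 further: plate controls were DMSO wells for no effect and camptothecin positive control wells for full effect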
- particulars: PC3M PTB-GFP, PNC prevalence imaging, 16 h; at 10 µM
Hit rate of the full screen: of about 140,000 compounds, about 4,300 (3.1%) were called active. Roughly 21% stayed inconclusive and do not appear here.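 The calls were made as follows: active = readout at or below -70, meaning at least 70% loss of cells showing the perinucleolar compartment, a nuclear body marking cancer cells; inconclusive = readout between -30 and a set limit; inactive = the rest.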 The entries come from a sample that favours actives as a whole.
Hi! Could you answer with just one of these? class 1 = active, class 0 = inactive

# example entries with known answers
Q: Which outcome was assigned to CCCc1nc2c([nH]1)C(c1cccnc1)C(C#N)=C(N)O2 (stereo not drawn) in this test?
Ans: class 0

Q: Which outcome was assigned to COCCCNC(=S)NC(=O)c1ccccc1 in this test?
Ans: class 0

Q: Which outcome was assigned to CCOC(=O)C1C(=O)C=C(c2ccc(OC)cc2)CC1c1ccco1 (stereo not drawn) in this test?
Ans: class 0

Q: Which outcome was assigned to CC(C)C(=O)NC(NC(=S)NC1CCS(=O)(=O)C1)C(Cl)(Cl)Cl (stereo not drawn) in this test?
Ans: class 1

Q: Which outcome was assigned to CC(C)=C(NC(=O)c1ccccc1)C(=O)N/N=C(\C)c1ccccc1O in this test?
Ans: class 0

New cases:
Q: Which outcome was assigned to Cc1nn(Cc2ccc(F)cc2)c(C)c1NC(=O)c1noc2c1CCc1ccccc1-2 in this test?
Ans: class 0

Q: Which outcome was assigned to CC(NC(=O)C(=O)NN=C1CCC(C(C)(C)C)CC1)c1ccccc1 (stereo not drawn) in this test?
Ans: class 0

Q: Which outcome was assigned to CCN(CC(=O)NC1CCS(=O)(=O)C1)S(=O)(=O)c1ccccc1 (stereo not drawn) in this test?
Ans: class 0

Q: Which outcome was assigned to CCNc1nc(NC(C)C)nc(OCCOC(=O)c2ccccc2)n1 in this test?
Ans: class 1

Q: Which outcome was assigned to Cc1noc(NS(=O)(=O)c2ccc(NC(=O)C34CCC(CC3)C4)cc2)c1C in this test?
Ans: class 1

Q: Which outcome was assigned to Cc1ccccc1OCC(=O)Nc1nc(C)c(C(=O)N(C)C)s1 in this test?
Ans: class 0

Q: Which outcome was assigned to CCCSC(=S)NC1CCS(=O)(=O)C1 (stereo not drawn) in this test?
Ans: class 0

Q: Which outcome was assigned to O=C(NNC(=S)NCc1ccccc1)c1ccc(OC(F)F)cc1 in this test?
Ans: class 0

Q: Which outcome was assigned to CCNc1nc(NC(C)C)nc(N2CC(=O)N(CC(=O)OCC)C2=N)n1 in this test?
Ans: class 0

Q: Which outcome was assigned to Cc1nn(Cc2ccccc2)c(C)c1C(=O)NCCN1C(=O)S/C(=C\c2ccc(F)cc2)C1=O in this test?
Ans: class 0

Q: Which outcome was assigned to COc1ccc(CC(=O)Nc2c3c(nn2-c2cccc(Cl)c2)CS(=O)C3)cc1 (stereo not drawn) in this test?
Ans: class 1

Q: Which outcome was assigned to COc1ccc(S(=O)(=O)NC(CC(=O)NCc2ccccc2OC)c2ccco2)cc1 (stereo not drawn) in this test?
Ans: class 0

Q: Which outcome was assigned to Cc1ccc(/C(N)=N/OC(=O)COc2ccc(Cl)c(C)c2)cc1 in this test?
Ans: class 0

Q: Which outcome was assigned to CCOC(=O)Nc1sc(C(=O)N(C)C)c(C)c1C(=O)OCC in this test?
Ans: class 0

Q: Which outcome was assigned to CCOC(=O)c1c(NC(=O)c2ccc(Br)o2)sc2c1CCCC2 in this test?
Ans: class 0

Q: Which outcome was assigned to COc1ccccc1NC(=O)CCCc1c[nH]c2ccccc12 in this test?
Ans: class 0

Q: Which outcome was assigned to O=C(N/N=C\c1ccc(Br)cc1)c1ccc(Cn2cccn2)o1 in this test?
Ans: class 0

Q: Which outcome was assigned to CCOC(=O)C1C(=O)NCC1c1ccccc1 (stereo not drawn) in this test?
Ans: class 0
